Measured growth values are reported for all entries that follow.
- Tested on: NCI/ADR-RES ovarian
- Protocol Description: NCI-60 one-dose screen, 48 h (100 = growth as untreated, 0 = no growth, -100 = all killed)
- Test Parameters: 10 µM unless noted
Compounds without any hit were thinned out: in the full panel of roughly 83,000, 20% have a hit. Calls of active or inactive are those of the source. How the source made its calls: active means growth percent below 10; inactive means the rest.

INSERT INTO assay_data (molecule, test_value) VALUES
  ('C=C1CCC2C(C)(CO)C(O)CCC2(C)C1C/C=C1/C(=O)OCC1Oc1ccccc1C (stereo not given)', '81.1% (inactive)'),
  ('CCCCCCCC/C=C/CCCCCCCC1=NC(C)(C)CN1C(C)(C)CO', '56% (inactive)'),
  ('Cc1nn(-c2ccc([N+](=O)[O-])cc2)c2ncnc(NCCc3ccccc3)c12', '102% (inactive)'),
  ('COc1cc(-c2ncn(/C=C\C(=O)OC(C)C)n2)cc(C(F)(F)F)c1', '2.76% (active)'),
  ('C=C[C@@H]1C[C@@H]2Cc3cc(F)ccc3N1O2', '102% (inactive)'),
  ('S=C(S)NCCc1c[nH]c2ccccc12', '101% (inactive)'),
  ('CCn1c2ccccc2c2cc(NC(=O)Nc3ccc([N+](=O)[O-])cc3C)ccc21', '23.1% (inactive)'),
  ('O=c1cc/c(=N\Nc2ccccc2)c(=O)/c1=N/Nc1ccccc1', '95.2% (inactive)'),
  ('NC(=S)N/N=C1\CCCC(C(F)(F)F)C1 (stereo not given)', '87.7% (inactive)'),
  ('C[n+]1c(/C=C/c2c(O)ccc3ccccc23)ccc2ccccc21', '25.2% (inactive)');

Would you mind telling me what growth value was observed for "Fc1ccccc1-c1nc(-c2nc3cc(Cl)c(Cl)cc3[nH]2)c2ccccn12" ?
76% (inactive)

Fill in: growth of "Cc1ccc(Nc2nnc(-c3ccc(Cl)cc3)o2)c(C)c1" is ___
45.6% (inactive)

Field request: growth | item: "N=C(N)c1ccc(-c2ccc(-c3cncc4ccccc34)s2)cc1F"
1.93% (active)

May I ask what growth has been recorded for "COc1ccc(C(=O)N2NC(=O)/C(=C/c3ccccc3F)N=C2c2ccccc2)cc1" ?
105% (inactive)

Can you share its growth? I mean this molecule: "COc1cc2c(cc1O)CCN1C[C@@H](CC(C)C)[C@@H](O)C[C@@H]21"
98.2% (inactive)

// query growth value for entry "COC1=C(OC)C(=O)C(CCCCCCCCCC[P+](c2ccccc2)(c2ccccc2)c2ccccc2)=C(C)C1=O"
60.7% (inactive)

What does the record list as growth for "O=Nc1c(-c2cccc([N+](=O)[O-])c2)nc2ncccn12" ?
97.5% (inactive)

Requested field: growth. Item: "O=C1/C(=C/c2ccc([N+](=O)[O-])cc2)CN(C(=O)CCN2CCC(=NO)CC2)C/C1=C\c1ccc([N+](=O)[O-])cc1"
7.5% (active)

Item "CCN(CC)c1ccc2[nH]c3c(C(N)=O)cc(=O)c(=O)c=3oc2c1" has what recorded growth?
-0.316% (active)

Item under review: "COc1ccc(/C=C2\Oc3cc(OCCCN4CCCC4)ccc3C2=O)c(OC)c1" . Reported growth?
91% (inactive)

Consider the molecule "O=C1/C(=C/c2ccc(Cl)cc2)CN(Cc2cn(CCNc3ccnc4cc(Cl)ccc34)nn2)C/C1=C\c1ccc(Cl)cc1" and give its measured growth.
-26.6% (active)

Please report the recorded growth for "C=C(C)[C@@H]1C[C@H](O)Cc2cc(F)ccc2N1" .
93.6% (inactive)

So what's the measured growth for this one? O=C(CSC1CCc2ccccc21)N/N=C/c1ccccc1O (stereo not given)
24.1% (inactive)

Reported growth, molecule "Cc1[nH]c2ccc(F)cc2c1CCNC(=O)C1CCN(C(=O)c2ccccc2)CC1" : ____
95.5% [25 µM] (inactive)

Which growth reading was recorded for the molecule "O=C(CSc1nc2ccccc2[nH]1)Nc1ccc(-c2nc3ccccc3s2)c(Cl)c1" ?
9.5% (active)
